- Tested on: Leishmania panamensis
- PROTOCOL_SUMMARY: Antileshmanial activity against EpiR/GFP fused Leishmania panamensis MHOM/CO/87/UA140 intracellular amastigotes infected in human […] cells after 72 hrs by flow cytometric method
- Format: functional, cell-based
- CONDITION_CONTEXT: MHOM/CO/87/UA140, 72 h
MEASURE_NAME: EC50

{"COMPOUND": "COc1ccc(C2=NN(c3ccccc3)C(c3cccc(Nc4ccnc5cc(Cl)ccc45)c3)C2)cc1 (stereo not given)", "SYSTEM_NAME": "Leishmania panamensis", "OBSERVED_VALUE": "6.93 µg/mL"}
{"COMPOUND": "COc1cc(C2=NN(c3ccccc3)C(c3cccc(Nc4ccnc5cc(Cl)ccc45)c3)C2)cc(OC)c1OC (stereo not given)", "SYSTEM_NAME": "Leishmania panamensis", "OBSERVED_VALUE": "13.4 µg/mL"}
{"COMPOUND": "COc1ccc(C(=O)/C=C/c2cccc(Nc3ccnc4cc(Cl)ccc34)c2)cc1", "SYSTEM_NAME": "Leishmania panamensis", "OBSERVED_VALUE": "2.65 µg/mL"}
{"COMPOUND": "Cc1ccc(C2=NN(c3ccc(Cl)cc3)C(c3cccc(Nc4ccnc5cc(Cl)ccc45)c3)C2)cc1 (stereo not given)", "SYSTEM_NAME": "Leishmania panamensis", "OBSERVED_VALUE": "49.4 µg/mL"}
{"COMPOUND": "Clc1cc(Cl)cc(N2N=C(c3ccc(Br)cc3)CC2c2cccc(Nc3ccnc4cc(Cl)ccc34)c2)c1 (stereo not given)", "SYSTEM_NAME": "Leishmania panamensis", "OBSERVED_VALUE": "2.77 µg/mL"}
{"COMPOUND": "COc1cc(C2=NN(c3ccc(Cl)cc3)C(c3cccc(Nc4ccnc5cc(Cl)ccc45)c3)C2)cc(OC)c1OC (stereo not given)", "SYSTEM_NAME": "Leishmania panamensis", "OBSERVED_VALUE": "21.3 µg/mL"}
{"COMPOUND": "O=C(/C=C/c1cccc(Nc2ccnc3cc(Cl)ccc23)c1)c1ccc(Cl)cc1", "SYSTEM_NAME": "Leishmania panamensis", "OBSERVED_VALUE": "0.79 µg/mL"}
{"COMPOUND": "Clc1ccc2c(Nc3cccc(C4CC(c5ccc(Br)cc5)=NN4c4ccccc4)c3)ccnc2c1 (stereo not given)", "SYSTEM_NAME": "Leishmania panamensis", "OBSERVED_VALUE": "3.59 µg/mL"}
{"COMPOUND": "Cc1ccc(C2=NN(C=O)C(c3cccc(Nc4ccnc5cc(Cl)ccc45)c3)C2)cc1 (stereo not given)", "SYSTEM_NAME": "Leishmania panamensis", "OBSERVED_VALUE": "2.19 µg/mL"}
{"COMPOUND": "Clc1ccc(C2=NN(c3ccc(Cl)cc3)C(c3cccc(Nc4ccnc5cc(Cl)ccc45)c3)C2)cc1 (stereo not given)", "SYSTEM_NAME": "Leishmania panamensis", "OBSERVED_VALUE": "91.4 µg/mL"}

====

- System: SF-539
- PROTOCOL_SUMMARY: Growth inhibition of human SF539 cells incubated for 48 hrs by sulforhodamine B assay
- Assay type: functional
- CONDITION_CONTEXT: SF-539, 48 h, read-out: LC50 (the source's name)
Item-by-item account of CC50

{"COMPOUND": "COc1cc(C(=O)/C=C/c2cccc(Nc3ccnc4cc(Cl)ccc34)c2)cc(OC)c1OC", "CC50": "5.27 µM"}
{"COMPOUND": "O=CN1N=C(c2ccc(Cl)cc2)CC1c1cccc(Nc2ccnc3cc(Cl)ccc23)c1 (centres undefined)", "CC50": "35.1 µM"}
{"COMPOUND": "COc1ccc(C(=O)/C=C/c2cccc(Nc3ccnc4cc(Cl)ccc34)c2)cc1", "CC50": "> 100 µM"}
{"COMPOUND": "COc1ccc(C2=NN(C=O)C(c3cccc(Nc4ccnc5cc(Cl)ccc45)c3)C2)cc1 (centres undefined)", "CC50": "39.7 µM"}
